- Tested on: T47D (PI3Kα-H1047R) cell line
- assayProtocol: HTRF phospho-AKT(S473) cell assay in T47D cells
- Format: cell-based, human
- conditionParameters: Homo sapiens; HTRF phospho-AKT(S473), T47D (PI3Kα-H1047R) cells, 2 hours compound incubation
pIC50: −log10 of the molar value.
measuredQuantity: pIC50

Some compounds with known pIC50 results, for comparison:
compound="Cc1cc([C@@H](C)Nc2ccc(Cl)nc2C(=O)NS(C)(=O)=O)c2nc(N3CCC(c4cnc(C)nc4)CC3)n(C3CC3)c(=O)c2c1 [Compound 607]" assayedtarget="T47D (PI3Kα-H1047R) cell line" reported="> 6.60"
compound="Cc1cc([C@@H](C)Nc2ccc(Cl)nc2C(=O)NS(C)(=O)=O)c2nc(N3CCC(n4ccccc4=O)CC3)n(C)c(=O)c2c1 [Compound 677]" assayedtarget="T47D (PI3Kα-H1047R) cell line" reported="6.30 to 6.60"

Record request: pIC50 value, item Cc1cc([C@@H](C)Nc2ccc(Cl)nc2C(=O)NS(C)(=O)=O)c2nc(N3C[C@@H]4[C@H](C3)[C@H]4c3cc(C)[nH]n3)n(C)c(=O)c2c1 [Compound 510]
6.30 to 6.60

May I ask what pIC50 has been recorded for Cc1cc([C@@H](C)Nc2ccc(Cl)nc2C(=O)NS(C)(=O)=O)c2nc(N3Cc4nccnc4C3)n(C)c(=O)c2c1 [Compound 534] ?
> 6.60

What does the record list as pIC50 for Cc1cc([C@@H](C)Nc2ccc(Cl)nc2C(=O)NS(=O)(=O)C2COC2)c2nc(N3Cc4cn(-c5ccccc5C)nc4C3)n(C)c(=O)c2c1 [Compound 628] ?
6.30 to 6.60

Could you tell me which pIC50 is on file for Cc1ccc(N2C[C@H]3C[C@@H]2CN3c2nc3c([C@@H](C)Nc4ccc(Cl)nc4C(=O)NS(C)(=O)=O)cc(C)cc3c(=O)n2C)nc1 [Compound 609] ?
6.00 to 6.30
